Target: T1, Recombinant soluble extracellular domain of human MerTK (human, UniProt Q12866 21-505)
T1 construct: SPR analyte; also called hMerTK
T1 sequence: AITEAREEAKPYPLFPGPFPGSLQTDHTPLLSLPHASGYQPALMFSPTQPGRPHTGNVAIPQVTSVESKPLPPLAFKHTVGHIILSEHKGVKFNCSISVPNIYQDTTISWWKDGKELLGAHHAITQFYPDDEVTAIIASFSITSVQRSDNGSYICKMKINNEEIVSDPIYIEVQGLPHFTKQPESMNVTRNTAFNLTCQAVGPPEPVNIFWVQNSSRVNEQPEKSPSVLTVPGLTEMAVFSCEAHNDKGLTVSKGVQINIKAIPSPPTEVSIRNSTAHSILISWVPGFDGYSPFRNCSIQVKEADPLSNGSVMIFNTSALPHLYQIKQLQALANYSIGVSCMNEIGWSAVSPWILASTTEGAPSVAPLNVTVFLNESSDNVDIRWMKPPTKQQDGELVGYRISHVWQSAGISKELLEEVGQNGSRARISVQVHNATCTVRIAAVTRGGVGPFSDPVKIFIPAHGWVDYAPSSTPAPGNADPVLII
Assay: SPR, mAb captured, soluble MerTK ECD as analyte, 37 C
ASSAY METRIC: kon (M⁻¹ s⁻¹)
Your answer is read as M⁻¹ s⁻¹, so omit the unit and give the number.

>>> assay_value("HuMAb 4K10 (antibody, human IgG1, kappa, V domains shown, Human anti-hMerTK mAb, Bin 3) VH: QVQLQQWGAGLLKPSETLSLTCAVYGGSFSGYYWSWLRQPPGKGLEWIGEISHSGSTNYNPSLKSRVTISVDTSKNQFSLKLSSVTAADTAVYYCARALSRYWYFDLWGRGTLVTVSS VL: EIVLTQSPATLSLSPGERATLSCRASQSASNYLAWYQQKPGQAPRLLIYDASNRATGIPARFSGSGSGTDFTLTISSLEPEDFAVYYCYQRSQWPISFGQGTRLEIKR")
121000
>>> assay_value("HuMAb 8N42 (antibody, V domains shown, Human anti-hMerTK mAb, Bin 1) VH: QVQLQQWGAGLLKPSETLSLTCAVYGGSFSIYYWSWIRQPPGKGLELIGEINDEGNTNYNPSLKSRVTISVDTSKNQFSLKLSSVTAADTAVYYCARGGTGDIHAFDIWGQGTMVTVSS VL: DIQMTQSPSSLSASVGDRVTITCRASQGISKWLAWYQQKPEKAPKSLIYAASSLQSGVPSRFSGSGSGTDFTLTISSLQPEDFATYYCQQYNSYPWTFGQGTKVEIKR")
299000
>>> assay_value("HuMAb 25J80 (antibody, human IgG1, kappa, V domains shown, Human anti-hMerTK mAb, Bin 2, derived from HuMAb 25B10 by optimization) VH: QVQLVQSGAEVKKPGASVKVSCKTSGRTFIRYYMHWVRQAPGQGLEWMGIIWPNGDQTTYAQKFQGRVTMTRDTSTSTVYMELSSLRSEDTAVYYCATTYKYAMDVWGQGTTVTVSS VL: EIVLTQSPGTLSLSPGERATLSCRASQSVRSNYLAWYQQKPGQAPRLLIYGASSRATGIPDRFSGSGSGTDFTLTISRLEPEDFAVYYCQQYESPPRTFGQGTKVEIKR")
297000
>>> assay_value("Humanized MAb 2L105 (antibody, human IgG1, lambda, V domains shown, Humanized variant of moMAb 2D9, Bin 2) VH: QVTLKESGPVLVKPTETLTLTCTVSGISLSSFAISWIRQPPGKALEWLAVIWTGGGTDYNSALKSRLTISKDTSKSQVVLTMTNMDPVDTATYYCASHWYLDVWGQGTTVTVSS VL: QTVVTQEPSFSVSPGGTVTLTCRSSTGAVSTSNYANWVQQTPGQAPRGLIGGANSRAPGIPDRFSGSILGNKAALTITGAQADDESDYYCALWFSNHWVFGGGTKLTVLG")
58900
>>> assay_value("HuMAb 1B4 (antibody, human IgG1, kappa, V domains shown, Human anti-hMerTK mAb, Bin 1) VH: QLQLQESGPGLVKPSETLSLTCAVSGYSISSGNYWGWIRQSPGKGLEWIGSVDHSGSTYYSPSLKSRVTISVDTSKNQFSLKLNSVTAADTADYYCARNTMIRGVMDWFDPWGQGTLVTVSS VL: AIQLTQSPSSLSASVGDRVTITCRASQGISSALAWYQQKPGKAPKVLIYDASSLESGVPSRFSGSGSGTDFTLTISSLQPEDFATYYCQQFRSYPTFGQGTKVEIKR")
250000

Continue with the next binder.
For Humanized mAb 4M60 (antibody, human IgG1, kappa, V domains shown, Humanized variant of moMAb 4E9, Bin 2) VH: QVQLVQSGSELKKPGASVKVSCKASGNTFTTYGMSWVRQAPGQGLEWMGWINNYSGVSTYADDFKGRFVFSLDTSVSTAYLQISSLKAEDTAVYYCARDYYGSGGWVFDYWGQGTTVTVSS VL: DVVMTQSPLSLPVTLGQPASISCKSSQSLLDSEGKTYLNWLQQRPGQSPRRLMYLVSKLDSGVPDRFSGSGSGTDFTLKISRVEAEDVGVYYCWQGTHFPRTFGGGTKVEIKR the binder record lists kon as 26400
